Molecular target: human GPR68 (Homo sapiens, UniProt Q15743)
Construct: encoding full-length human GPR68 (uniprot ID: Q15743); expressed in transfected cells; host or cells: HEK293T
Sequence (Q15743 whole entry): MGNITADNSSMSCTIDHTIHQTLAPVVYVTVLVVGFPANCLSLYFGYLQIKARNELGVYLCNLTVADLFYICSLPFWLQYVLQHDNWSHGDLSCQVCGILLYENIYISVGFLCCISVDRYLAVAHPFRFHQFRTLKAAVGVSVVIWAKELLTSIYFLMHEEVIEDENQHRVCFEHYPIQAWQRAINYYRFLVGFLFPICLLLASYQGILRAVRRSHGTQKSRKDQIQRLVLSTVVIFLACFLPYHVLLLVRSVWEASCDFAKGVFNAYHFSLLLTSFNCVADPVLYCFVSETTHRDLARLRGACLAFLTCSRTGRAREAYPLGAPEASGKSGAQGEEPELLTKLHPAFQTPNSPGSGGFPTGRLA
Assay: GPR68 Biochemical Assay (Promega GloSensor cAMP assay, GPR68 antagonism)
Format: cell-based
Settings: HEK293T cells transiently expressing hGPR68, antagonism of pH 5.5 stimulated cAMP, 15 min, read-out: hGPR68 IC50
Overview of reported IC50 across a group of compounds:

Consider the worked cases shown below.
compound: COCc1nn2c(C(=O)NC3CC4(C3)CC(F)(F)C4)ccnc2c1C(N)=O [Compound 126]
recorded_endpoint: IC50
result: 50 to 500 nM
//
compound: COCc1nn2c(C(=O)N[C@@H]3COc4cc(F)ccc43)ccnc2c1C(N)=O [Compound 167]
recorded_endpoint: IC50
result: < 50 nM
//
compound: COCc1nn2c(C(=O)NC3CC(F)(F)C3)ccnc2c1C(N)=O [Compound 58]
recorded_endpoint: IC50
result: < 50 nM

Prompt line: Tell me the measured IC50 of COCc1nc2c(C(=O)N[C@H]3CCS(=O)(=O)c4ccccc43)ccnn2c1C(N)=O [Compound 220] , please.
Response line: 50 to 500 nM

Prompt line: Moving on to COCc1nn2c(C(=S)NC3Cc4ccccc4C3)ccnc2c1C(N)=O [Compound 148]
Response line: < 50 nM

Prompt line: Moving on to NC(=O)c1c(C2CC2)nn2c(C(=O)NCc3ccc(F)cc3)ccnc12 [Compound 140]
Response line: < 50 nM

All figures here come from patent US20260308159A1.
